Test system: LG0703-F498-PDC complex spheroid growth
Test: Anticancer human tumor LG0703-F498-PDC patient-derived lung adenocarcinoma cell line growth inhibition [AhR]
Details: second compound 10 µM; first compound 3.16 µM; stronger effect = lower value
measured_attribute: viability, T/C (%)
State the answer as a number, implicitly in %.

Examples from the recorded data:
molecule	experimental_system	unit_abbrev	result_value
COc1ccc([C@@H](O)c2cc(-c3ncnc4cc(N5CCOCC5)ccc34)c(F)cc2Cl)nn1 + Cc1cncc(-c2nc(NCCc3c[nH]c4ccccc34)c3ncn(C(C)C)c3n2)c1	LG0703-F498-PDC complex spheroid growth	%	0.52
Nc1ccn(C2OC(CO)C(O)C2(F)F)c(=O)n1 (stereo not drawn) + Cc1cncc(-c2nc(NCCc3c[nH]c4ccccc34)c3ncn(C(C)C)c3n2)c1	LG0703-F498-PDC complex spheroid growth	%	1.14

In the following, a different molecule is considered.
// query I'd like to know its viability, T/C. The molecule in question is COc1cc(C2c3cc4c(cc3C(OC3OC5COC(C)OC5C(O)C3O)C3COC(=O)C23)OCO4)cc(OC)c1O (stereo not drawn) + Cc1cncc(-c2nc(NCCc3c[nH]c4ccccc34)c3ncn(C(C)C)c3n2)c1
// result 1.3

====

Tested on: LG0703-F498-PDC complex spheroid growth
Test: Anticancer human tumor LG0703-F498-PDC cell line growth inhibition [AhR];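 note: luminescence taken as a proxy for viable cell amount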;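 for viability, T/C: percent of DMSO vehicle control where 100% means growth equal to vehicle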
Settings: second compound 0.1 µM; first compound 0.0316 µM; stronger effect = lower value
measured_attribute: viability, T/C (%)
Output spec: scalar in %, unitless text.

Worked examples, 2 molecules total:
molecule	result_value
O=C(C=Cc1cccc(S(=O)(=O)Nc2ccccc2)c1)NO + Cc1cncc(-c2nc(NCCc3c[nH]c4ccccc34)c3ncn(C(C)C)c3n2)c1	118
O=C(c1cc(Cc2n[nH]c(=O)c3ccccc23)ccc1F)N1CCN(C(=O)C2CC2)CC1 + CC(CO)NC(=O)c1cc(-c2ccc(Cl)cc2)nn(-c2cnn(C)c2)c1=O	95.2

Turning to the following molecule.
// query What viability, T/C value was documented for this molecule, CC1(C)CCC(CN2CCN(c3ccc(C(=O)NS(=O)(=O)c4ccc(NCC5CCOCC5)c([N+](=O)[O-])c4)c(Oc4cnc5[nH]ccc5c4)c3)CC2)=C(c2ccc(Cl)cc2)C1 + Cc1cncc(-c2nc(NCCc3c[nH]c4ccccc34)c3ncn(C(C)C)c3n2)c1 ?
// result 112

====

Recorded pIC50 values for a group of molecules are listed next.
System: LG0703-F498-PDC complex spheroid growth
Test: Anticancer human tumor LG0703-F498-PDC cell line growth inhibition [AhR];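 note: luminescence taken as a proxy for viable cell amount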
Conditions: curve of first compound; second compound 0.316 µM
When answering, recall that pIC50 equals minus log10 of the concentration in mol/L, and write that number alone.

molecule	result_value
NS(=O)(=O)OCC1CC(n2ccc3c(NC4CCc5ccccc54)ncnc32)CC1O (stereo not drawn) + Cc1ccccc1N=Nc1ccc(NC(=O)c2ccnn2C)c(C)c1	5.17

// query Can you share its pIC50? I mean this molecule: CC(C)CC(NC(=O)C(Cc1ccccc1)NC(=O)c1cnccn1)B(O)O (stereo not drawn) + Cc1ccccc1N=Nc1ccc(NC(=O)c2ccnn2C)c(C)c1
// result 8.30

====

Test system: LG0703-F498-PDC complex spheroid growth
Experiment: Anticancer human tumor LG0703-F498-PDC cell line growth inhibition [AhR];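 note: luminescence taken as a proxy for viable cell amount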
Details: curve of first compound; second compound 3.16 µM
# maps each entry to its IC50
Give a bare numeral; the unit nM is implied.

// query Data request, read-out IC50, for COc1cc(Nc2ncc3c(n2)-c2ccc(Cl)cc2C(c2c(F)cccc2OC)=NC3)ccc1C(=O)O + Cc1ccccc1N=Nc1ccc(NC(=O)c2ccnn2C)c(C)c1
// result 4050

// query Returns the measured IC50 for the input compound. Input: CC1COCCN1c1cc(-c2ccnn2C)c2ccnc(-c3ccn[nH]3)c2n1 (configuration not stated) + CC(CO)NC(=O)c1cc(-c2ccc(Cl)cc2)nn(-c2cnn(C)c2)c1=O
// result 416

// query IC50 for COc1cc(Nc2ncc3c(n2)-c2ccc(Cl)cc2C(c2c(F)cccc2OC)=NC3)ccc1C(=O)O + CC(CO)NC(=O)c1cc(-c2ccc(Cl)cc2)nn(-c2cnn(C)c2)c1=O ?
// result 4360

// query # query: IC50 of entry COc1cc(C2c3cc4c(cc3C(OC3OC5COC(C)OC5C(O)C3O)C3COC(=O)C23)OCO4)cc(OC)c1O (configuration not stated) + Cc1cncc(-c2nc(NCCc3c[nH]c4ccccc34)c3ncn(C(C)C)c3n2)c1
// result 5510

// query Given the compound O=C(C=Cc1cccc(S(=O)(=O)Nc2ccccc2)c1)NO + Cc1cncc(-c2nc(NCCc3c[nH]c4ccccc34)c3ncn(C(C)C)c3n2)c1 , what is its reported IC50?
// result 423

// query Can you share its IC50? I mean this compound: CC(C)CC(NC(=O)C(Cc1ccccc1)NC(=O)c1cnccn1)B(O)O (configuration not stated) + Cc1ccccc1N=Nc1ccc(NC(=O)c2ccnn2C)c(C)c1
// result 5

// query Given the compound Nc1ccccc1NC(=O)c1ccc(CNC(=O)OCc2cccnc2)cc1 + Cc1ccccc1N=Nc1ccc(NC(=O)c2ccnn2C)c(C)c1 , what is its reported IC50?
// result 940

// query Recorded IC50 of CC(C)CC(NC(=O)C(Cc1ccccc1)NC(=O)c1cnccn1)B(O)O (configuration not stated) + CC(CO)NC(=O)c1cc(-c2ccc(Cl)cc2)nn(-c2cnn(C)c2)c1=O , please.
// result 2.09

// query // returns reported IC50 for input CC1(C)CCC(CN2CCN(c3ccc(C(=O)NS(=O)(=O)c4ccc(NCC5CCOCC5)c([N+](=O)[O-])c4)c(Oc4cnc5[nH]ccc5c4)c3)CC2)=C(c2ccc(Cl)cc2)C1 + CC(CO)NC(=O)c1cc(-c2ccc(Cl)cc2)nn(-c2cnn(C)c2)c1=O
// result 5480

// query Reported IC50 for CC1(C)CCC(CN2CCN(c3ccc(C(=O)NS(=O)(=O)c4ccc(NCC5CCOCC5)c([N+](=O)[O-])c4)c(Oc4cnc5[nH]ccc5c4)c3)CC2)=C(c2ccc(Cl)cc2)C1 + Cc1cncc(-c2nc(NCCc3c[nH]c4ccccc34)c3ncn(C(C)C)c3n2)c1 : what is it?
// result 31.6

====

System: LG0703-F498-PDC complex spheroid growth
Assay: Anticancer human tumor LG0703-F498-PDC cell line growth inhibition [AhR]; active = viability on the fitted dose curve at most 10% of control; inactive = the rest;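 note: luminescence taken as a proxy for viable cell amount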
Details: second compound 10 µM; first compound 0.1 µM
# valid calls are t for active, f for inactive; nothing else

For orientation, consider the following solved cases.
compound	experimental_system	category_label
COc1cccc2c1C(=O)c1c(O)c3c(c(O)c1C2=O)CC(O)(C(=O)CO)CC3OC1CC(N)C(O)C(C)O1 (configuration not stated) + CC(CO)NC(=O)c1cc(-c2ccc(Cl)cc2)nn(-c2cnn(C)c2)c1=O	LG0703-F498-PDC complex spheroid growth	f
O=C(C=Cc1cccc(S(=O)(=O)Nc2ccccc2)c1)NO + CC(CO)NC(=O)c1cc(-c2ccc(Cl)cc2)nn(-c2cnn(C)c2)c1=O	LG0703-F498-PDC complex spheroid growth	f
O=C(c1cc(Cc2n[nH]c(=O)c3ccccc23)ccc1F)N1CCN(C(=O)C2CC2)CC1 + Cc1cncc(-c2nc(NCCc3c[nH]c4ccccc34)c3ncn(C(C)C)c3n2)c1	LG0703-F498-PDC complex spheroid growth	t
Cn1ncnc1C1c2n[nH]c(=O)c3cc(F)cc(c23)NC1c1ccc(F)cc1 (configuration not stated) + CC(CO)NC(=O)c1cc(-c2ccc(Cl)cc2)nn(-c2cnn(C)c2)c1=O	LG0703-F498-PDC complex spheroid growth	f
COc1cc(Nc2ncc3c(n2)-c2ccc(Cl)cc2C(c2c(F)cccc2OC)=NC3)ccc1C(=O)O + Cc1ccccc1N=Nc1ccc(NC(=O)c2ccnn2C)c(C)c1	LG0703-F498-PDC complex spheroid growth	f
CC1(C)CCC(CN2CCN(c3ccc(C(=O)NS(=O)(=O)c4ccc(NCC5CCOCC5)c([N+](=O)[O-])c4)c(Oc4cnc5[nH]ccc5c4)c3)CC2)=C(c2ccc(Cl)cc2)C1 + Cc1ccccc1N=Nc1ccc(NC(=O)c2ccnn2C)c(C)c1	LG0703-F498-PDC complex spheroid growth	f

// query Tell me the recorded outcome of this test for COc1ccc([C@@H](O)c2cc(-c3ncnc4cc(N5CCOCC5)ccc34)c(F)cc2Cl)nn1 + Cc1cncc(-c2nc(NCCc3c[nH]c4ccccc34)c3ncn(C(C)C)c3n2)c1 .
// result t

// query Check the results log: what was the call for CC1COCCN1c1cc(C2(S(C)(=N)=O)CC2)nc(-c2ccnc3[nH]ccc23)n1 (configuration not stated) + Cc1ccccc1N=Nc1ccc(NC(=O)c2ccnn2C)c(C)c1 ?
// result f

====

System: LG0703-F498-PDC complex spheroid growth
Assay: Anticancer human tumor LG0703-F498-PDC cell line growth inhibition [AhR]; active = viability on the fitted dose curve at most 10% of control; inactive = the rest;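 note: luminescence taken as a proxy for viable cell amount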
Details: second compound 0.1 µM; first compound 0.3 µM
// allowed return values: yes (1) for active, no (0) for inactive

molecule	category_label
CCN(c1cc(-c2ccc(CN3CCOCC3)cc2)cc(C(=O)NCc2c(C)cc(C)[nH]c2=O)c1C)C1CCOCC1 + CC(CO)NC(=O)c1cc(-c2ccc(Cl)cc2)nn(-c2cnn(C)c2)c1=O	no (0)
Nc1ncn(C2CC(O)C(CO)S2)c(=O)n1 (centres undefined) + Cc1ccccc1N=Nc1ccc(NC(=O)c2ccnn2C)c(C)c1	no (0)
CC(C)CC(NC(=O)C(Cc1ccccc1)NC(=O)c1cnccn1)B(O)O (centres undefined) + CC(CO)NC(=O)c1cc(-c2ccc(Cl)cc2)nn(-c2cnn(C)c2)c1=O	yes (1)

// query Please indicate how the test categorized CC(C)CC(NC(=O)C(Cc1ccccc1)NC(=O)c1cnccn1)B(O)O (centres undefined) + Cc1cncc(-c2nc(NCCc3c[nH]c4ccccc34)c3ncn(C(C)C)c3n2)c1 .
// result yes (1)

Cited source for all entries: PubChem BioAssay AID1919013
